assay summary: Renal impairment study: PK after a single 12 mg oral dose of CTP-543
Type: in vivo, human
run parameters: human, plasma, po, 12 mg, single 12 mg oral dose of CTP-543; moderate renal impairment N = 7; outlier excluded; read-out: Cmax (geometric mean)
measurement kind: Cmax (ng/mL)
Your answer should be a plain number; it is taken to be in ng/mL.

Fill in the blank: the reported Cmax of "[2H]C1([2H])C([C@@H](CC#N)n2cc(-c3ncnc4[nH]ccc34)cn2)C([2H])([2H])C([2H])([2H])C1([2H])[2H]" is ____.
207

* * *

assay summary: Renal impairment study: PK after a single 12 mg oral dose of CTP-543
Assay type: in vivo, human
run parameters: human, plasma, po, 12 mg, single 12 mg oral dose of CTP-543; moderate renal impairment N = 7; outlier excluded
measurement kind: Tmax (min)
Your answer should be a plain number; it is taken to be in min.

Fill in the blank: the reported Tmax of "[2H]C1([2H])C([C@@H](CC#N)n2cc(-c3ncnc4[nH]ccc34)cn2)C([2H])([2H])C([2H])([2H])C1([2H])[2H]" is ____.
30
